Assay: xn = mol fraction of the nth substance listed, in the solute-free solvent
Conditions: 318.15 K; x2 = 0.04165
Reported solubility (g/100 g solution) is given for each of the following molecules.

molecule	solubility (g/100 g solution)
Cc1[nH]c(=O)c(C#N)cc1-c1ccncc1 + CCO + O	0.00224
CC(C)OC(=O)C(C)NP(=O)(OCC1OC(n2ccc(=O)[nH]c2=O)C(C)(F)C1O)Oc1ccccc1 (centres undefined) + CCO + O	3.42
COc1cc2c(cc1OC)-c1cc3ccc(OC)c(OC)c3c[n+]1CC2.[Cl-] + CCO + O	4.96
Nc1cccc(S(=O)(=O)c2cccc(N)c2)c1 + CCO + O	0.459

----------
Experiment: xn = mol fraction of the nth substance listed, in the solute-free solvent
Settings: 303.15 K; x2 = 0.1
I'd appreciate it if you could label each record using solubility (g/100 g solution) and these ranges: group A: < 0.09; group B: ≥ 0.09 and < 2; group C: ≥ 2

compound	discrete label
CC(N)C(=O)O (stereo not given) + O + CCCO	group A
S=c1[nH]ncs1 + CCCO + O	group C
CC(N)C(=O)O (stereo not given) + O + CC(C)=O	group A
CC(N)C(=O)O (stereo not given) + O + CO	group B
S=c1[nH]ncs1 + CCO + O	group C
S=c1[nH]ncs1 + CC(C)=O + O	group C
CC(N)C(=O)O (stereo not given) + O + CC(C)O	group A
Cc1ncc(C[n+]2csc(CCO)c2C)c(N)n1.O=[N+]([O-])[O-] + O + CO	group B

----------
Assay: xn = mol fraction of the nth substance listed, in the solute-free solvent
Conditions: 323.15 K; x2 = 0.5
solubility (g/100 g solution) listing for selected compounds.

compound	solubility (g/100 g solution)
S=c1[nH]ncs1 + CC(C)=O + O	40.1
CCCCCOC(=O)Nc1nc(=O)n(C2OC(C)C(O)C2O)cc1F (stereo unspecified) + CCOC(C)=O + CCCCCCC	0.604
OCCN(CCO)c1nc(N2CCCCC2)c2nc(N(CCO)CCO)nc(N3CCCCC3)c2n1 + CCO + O	28.1
OCCN(CCO)c1nc(N2CCCCC2)c2nc(N(CCO)CCO)nc(N3CCCCC3)c2n1 + CC(C)O + O	33.4
S=c1[nH]ncs1 + CCCO + O	27.3
S=c1[nH]ncs1 + CCO + O	28.1

----------
Experiment: xn = mol fraction of the nth substance listed, in the solute-free solvent
Conditions: 303.15 K; x2 = 0.5
Listing of recorded solubility (g/100 g solution) by entry.

compound	solubility (g/100 g solution)
S=c1[nH]ncs1 + CCO + O	15.6
CC(N)C(=O)O (stereo unspecified) + O + CO	1.11
CC(N)C(=O)O (stereo unspecified) + O + CC(C)=O	0.0969
S=c1[nH]ncs1 + CC(C)=O + O	30.3
CC(N)C(=O)O (stereo unspecified) + O + CC(C)O	0.267
OCCN(CCO)c1nc(N2CCCCC2)c2nc(N(CCO)CCO)nc(N3CCCCC3)c2n1 + CO + O	1.16

----------
Assay: xn = mol fraction of the nth substance listed, in the solute-free solvent
Conditions: 318.15 K; x2 = 0.4

compound	solubility (g/100 g solution)
OCCN(CCO)c1nc(N2CCCCC2)c2nc(N(CCO)CCO)nc(N3CCCCC3)c2n1 + CC(C)O + O	25.6
S=c1[nH]ncs1 + CCO + O	22.3
CCCCCOC(=O)Nc1nc(=O)n(C2OC(C)C(O)C2O)cc1F (centres undefined) + CCOC(C)=O + CCCCCCC	0.216
S=c1[nH]ncs1 + CC(C)=O + O	35.3
OCCN(CCO)c1nc(N2CCCCC2)c2nc(N(CCO)CCO)nc(N3CCCCC3)c2n1 + CO + O	1.48
S=c1[nH]ncs1 + CCCO + O	23.3
S=c1[nH]ncs1 + CO + O	16.4
CCCCCOC(=O)Nc1nc(=O)n(C2OC(C)C(O)C2O)cc1F (centres undefined) + CCOC(C)=O + CCCCCC	0.392
OCCN(CCO)c1nc(N2CCCCC2)c2nc(N(CCO)CCO)nc(N3CCCCC3)c2n1 + CCO + O	16

Where do these numbers come from? They come from the CheMixHub drug solubility set.
